target: IR(h) (Homo sapiens); construct: purchased Millipore; experiment: Kinase Profiling Assay; format: biochemical; details: peptide 100 μM
% activity overview

SEQUENCE_CODE | STUDY_SYSTEM | UNITS_OF_MEASURE | % activity
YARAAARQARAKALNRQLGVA (Mammal) [MMI-0200] | IR(h) (Homo sapiens) | % | 90
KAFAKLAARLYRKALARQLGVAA [MMI-0400] | IR(h) (Homo sapiens) | % | 85
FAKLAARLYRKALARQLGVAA [MMI-0300] | IR(h) (Homo sapiens) | % | 96
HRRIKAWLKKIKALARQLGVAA (Mammal) [MMI-0500] | IR(h) (Homo sapiens) | % | 95

---

biological target: ErbB4(h) (Homo sapiens); experiment: Kinase Profiling Assay; assay type: biochemical; settings: peptide 100 μM
Sequence (Q15303 26-1308): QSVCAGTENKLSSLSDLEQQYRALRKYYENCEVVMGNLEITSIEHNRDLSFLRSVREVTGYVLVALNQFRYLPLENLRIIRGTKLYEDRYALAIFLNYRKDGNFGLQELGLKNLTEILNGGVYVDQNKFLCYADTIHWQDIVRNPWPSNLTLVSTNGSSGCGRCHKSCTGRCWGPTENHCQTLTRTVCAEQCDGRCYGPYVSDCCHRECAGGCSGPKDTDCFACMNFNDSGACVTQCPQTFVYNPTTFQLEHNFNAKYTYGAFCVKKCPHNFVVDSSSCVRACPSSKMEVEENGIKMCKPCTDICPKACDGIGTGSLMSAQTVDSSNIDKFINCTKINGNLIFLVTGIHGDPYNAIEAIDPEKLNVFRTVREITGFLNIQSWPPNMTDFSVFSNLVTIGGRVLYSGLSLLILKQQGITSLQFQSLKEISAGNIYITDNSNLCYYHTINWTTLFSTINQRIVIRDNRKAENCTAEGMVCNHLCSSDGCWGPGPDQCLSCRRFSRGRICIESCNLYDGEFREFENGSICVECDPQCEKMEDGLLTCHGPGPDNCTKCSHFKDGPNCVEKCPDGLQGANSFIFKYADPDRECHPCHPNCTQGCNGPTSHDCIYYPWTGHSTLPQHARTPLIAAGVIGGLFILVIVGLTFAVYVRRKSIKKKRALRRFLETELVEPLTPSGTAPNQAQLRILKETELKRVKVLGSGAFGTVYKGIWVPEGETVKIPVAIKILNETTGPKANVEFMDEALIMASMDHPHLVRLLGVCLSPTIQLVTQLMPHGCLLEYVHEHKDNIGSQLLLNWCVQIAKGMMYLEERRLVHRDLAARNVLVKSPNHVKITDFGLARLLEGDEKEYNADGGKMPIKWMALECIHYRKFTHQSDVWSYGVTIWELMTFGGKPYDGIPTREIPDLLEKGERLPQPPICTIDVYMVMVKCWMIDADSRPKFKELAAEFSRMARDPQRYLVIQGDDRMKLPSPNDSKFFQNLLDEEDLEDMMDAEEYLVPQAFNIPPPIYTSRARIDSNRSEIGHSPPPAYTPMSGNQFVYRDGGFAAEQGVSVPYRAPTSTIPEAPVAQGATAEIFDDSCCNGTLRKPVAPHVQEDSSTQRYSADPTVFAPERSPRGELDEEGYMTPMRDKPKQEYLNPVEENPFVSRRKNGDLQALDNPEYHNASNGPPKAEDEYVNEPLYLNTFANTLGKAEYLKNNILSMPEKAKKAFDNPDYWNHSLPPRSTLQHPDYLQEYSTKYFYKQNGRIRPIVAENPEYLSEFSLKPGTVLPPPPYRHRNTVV
No end group written: not given here.
% activity overview
PARAMETER_MEASURED: % activity (%)

SEQUENCE_CODE | EXPERIMENTAL_VALUE
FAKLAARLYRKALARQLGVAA [MMI-0300] | 40
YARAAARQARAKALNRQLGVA (Mammal) [MMI-0200] | 82
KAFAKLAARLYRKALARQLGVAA [MMI-0400] | 0
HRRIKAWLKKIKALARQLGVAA (Mammal) [MMI-0500] | 2
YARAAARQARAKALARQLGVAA [MMI-0100] | 73

---

% activity overview
Biological target: EphB4(h) (Homo sapiens)
Sequence (P54760 16-987): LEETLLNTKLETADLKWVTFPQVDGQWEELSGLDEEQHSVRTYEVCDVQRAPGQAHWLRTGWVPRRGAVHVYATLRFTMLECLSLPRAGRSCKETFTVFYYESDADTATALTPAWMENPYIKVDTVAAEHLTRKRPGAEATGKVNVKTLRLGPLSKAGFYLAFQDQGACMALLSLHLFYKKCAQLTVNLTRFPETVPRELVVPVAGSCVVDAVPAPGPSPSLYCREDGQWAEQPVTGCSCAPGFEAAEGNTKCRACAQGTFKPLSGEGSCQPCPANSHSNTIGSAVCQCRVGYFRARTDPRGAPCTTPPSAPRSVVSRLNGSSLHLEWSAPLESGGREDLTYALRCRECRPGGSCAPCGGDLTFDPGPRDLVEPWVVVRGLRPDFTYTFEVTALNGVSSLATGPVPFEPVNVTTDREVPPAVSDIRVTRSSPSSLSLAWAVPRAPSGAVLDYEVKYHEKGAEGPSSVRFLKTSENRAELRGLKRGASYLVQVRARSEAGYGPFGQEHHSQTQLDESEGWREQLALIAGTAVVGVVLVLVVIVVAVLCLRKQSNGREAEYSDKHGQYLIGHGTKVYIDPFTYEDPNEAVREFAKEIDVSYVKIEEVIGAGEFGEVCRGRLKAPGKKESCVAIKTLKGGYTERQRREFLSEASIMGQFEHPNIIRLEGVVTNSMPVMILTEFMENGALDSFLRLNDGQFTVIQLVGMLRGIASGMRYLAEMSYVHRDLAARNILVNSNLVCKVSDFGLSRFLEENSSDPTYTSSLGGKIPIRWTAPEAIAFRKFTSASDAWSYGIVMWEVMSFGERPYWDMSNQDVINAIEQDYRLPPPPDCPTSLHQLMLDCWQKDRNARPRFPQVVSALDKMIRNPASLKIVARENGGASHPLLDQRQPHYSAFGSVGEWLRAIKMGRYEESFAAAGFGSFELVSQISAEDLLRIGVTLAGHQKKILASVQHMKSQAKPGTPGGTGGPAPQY
Experiment: Kinase Profiling Assay
Type: biochemical
Conditions: peptide 100 μM
No end group written: not given here.
PARAMETER_MEASURED: % activity (%)

SEQUENCE_CODE | UNITS_OF_MEASURE | EXPERIMENTAL_VALUE
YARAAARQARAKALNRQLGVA (Mammal) [MMI-0200] | % | 131
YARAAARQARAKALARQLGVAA [MMI-0100] | % | 62
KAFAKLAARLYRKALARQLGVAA [MMI-0400] | % | 28
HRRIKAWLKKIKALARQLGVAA (Mammal) [MMI-0500] | % | 38
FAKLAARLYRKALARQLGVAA [MMI-0300] | % | 44
